endpoint: melting point

Sample records with melting point:
## Task Tell me the measured melting point of CC(=O)c1cc(-c2ccncc2)[nH]c1C , please.
## Result 236 to 237 °C

## Task What value of melting point has been reported for the following compound? CS(=O)(=O)c1c(C#N)nn(-c2c(Cl)cc(C(F)(F)F)cc2Cl)c1-n1cccc1
## Result 200 to 202 °C

More entries:
## Task Which value of melting point has been reported for Clc1ccc(Oc2c(-c3ccco3)sc3cnccc23)cc1 in the records?
## Result 75 to 77 °C

## Task Consider the compound O=C(C1CCC1)N1C[C@@H](c2c[nH]c3ccccc23)[C@H](c2cn3c4c(cccc24)CCC3)C1 and give its measured melting point.
## Result 253 to 255 °C

## Task Requested read-out: melting point. Entry: CCCCCNC(=O)n1cc(F)c(N)nc1=O
## Result 289 to 292 °C

## Task Using the record for COc1cc2c(c(OC(C)=O)c1)C1CCC3(C)C(=O)C(Br)CC3C1CC2 (stereo not given) , report its melting point.
## Result 188 to 190 °C

## Task Can you look up the measured melting point of COc1cc(CO)c(-c2ccc(OCCC(C)CCCC(C)C)cc2)cc1CO (stereo not given) for me?
## Result 101 °C

====

Consider the following compounds and their measured melting point readings.

Answered examples (6):
## Task Record request: melting point value, item CN(Cc1ccccc1)c1nc(N2CCOCC2)nc(-n2c(C(F)F)nc3ccccc32)n1
## Result 147 to 150 °C

## Task Given the entry COC(=O)CCNC(=O)COc1ccc2c(c1)CC(NS(=O)(=O)c1ccc(Cl)cc1)C2 (stereo unspecified) , report its measured melting point.
## Result 126 to 128 °C

## Task Value lookup for melting point; key = CC(C(=O)OC12CC3CC(CC(C3)C1)C2)c1ccc2nc(N)sc2c1 (stereo unspecified)
## Result 151 to 153 °C

## Task Please give the measured melting point for this compound: COc1cc(Br)c(I)cc1OC
## Result 98 to 100 °C

## Task Endpoint output: melting point of Cc1cccc(C=CC(=O)C=Cc2cccc(C)c2)c1 . Value?
## Result 68 to 72 °C

## Task Sample COc1cc(OC)nc(Oc2cccc(Cl)c2C(=O)O)n1 — what was its melting point?
## Result 123 to 126 °C

Continuing:
## Task Fill in: melting point of CNC(=O)c1c(-c2ccccc2)noc1C=C(N)c1ccccc1 is ___
## Result 181 to 183 °C

## Task Could you share which melting point value was measured for O=C(CC1CCCCC1)Nc1ccccc1 ?
## Result 126 to 128 °C

## Task I am curious: what melting point value has been reported for Nc1ccccc1/C=C/C(=O)CC(=O)/C=C/c1ccc(O)cc1 ?
## Result 186 to 193 °C

## Task Report melting point for CCC1Cc2cc(NC(C)=O)ccc2C1=O (stereo unspecified) please.
## Result 154 to 155 °C

## Task Give its melting point value. Item: CCOc1nc(NCc2ccco2)nc(Nc2ccc3c(c2)ncn3C)n1
## Result 105 to 107 °C

====

Known melting point of a selection of compounds

## Task For the compound OCC(O)(Cc1ccc(Cl)cc1Cl)c1cccnc1 (stereo unspecified) , what melting point is on record?
## Result 158 to 159 °C

## Task Reported melting point, compound CC(=O)Nc1c(N(C)C)cnn(C)c1=O : ____
## Result 123 to 124 °C

====

The following compounds are shown together with reported melting point values.

These recorded examples may help you get a feel for the data.
## Task Query (compound): CC1(C)CC(=O)OC(C(Cl)(Cl)Cl)C1Br (stereo not given) ; field requested: melting point
## Result 98.5 to 99.5 °C

## Task Which melting point reading was recorded for the compound COc1ccc(-c2ccc(-c3nc(-c4ccc(C(F)(F)F)cc4)oc3C)cc2)cc1 ?
## Result 167 to 168 °C

## Task Consider the compound CS(=O)(=O)Nc1ccc(-c2ccc(C(=O)NCCCCN3CCC(c4ccc5c(c4OCCO)CCCC5)CC3)cc2)cc1 and give its measured melting point.
## Result 216 °C

## Task Given CCCCCCCCCCCCc1nnn(CC(=O)O)n1 , state its recorded melting point.
## Result 89 to 91 °C

***
## Task GET /values?readout=melting point&item= CCC(=O)c1cn(C)cc(-c2cccc(C(F)(F)F)c2)c1=O
## Result 136 to 138 °C

====

endpoint: melting point

## Task Look up melting point: COC(=O)c1ccc2c(c1)nc(C)n2N
## Result 220 to 222 °C

Could you now look at the following compound, please?
## Task Quick one: melting point of CCOC(=O)c1cnc2c(N)cccc2c1 ?
## Result 94 to 96 °C

====

Documented melting point across a set of compounds

Record excerpt, results attached:
## Task Entry CCOC(CNC(=S)Nc1cccc2nc(C)ccc12)OCC : reported melting point = ?
## Result 181 to 185 °C

## Task I am curious: what melting point value has been reported for CCn1c(=O)c(C(=O)O)c(N)c2cccnc21 ?
## Result 245 to 248 °C

## Task Looking for the measured melting point of Cc1cnc(-c2ccc(Cl)s2)nc1Cl , can you help?
## Result 137 °C

## Task May I ask what melting point has been recorded for COc1cc(Cc2cnc(N)nc2N)cc(C#Cc2ccc3ccccc3c2)c1OC ?
## Result 152 to 155 °C

## Task I have this compound here, COc1ccc(NC(=S)C(N)=O)cc1OC , and I need its recorded melting point.
## Result 149 to 151 °C

## Task Suppose we examine the compound Cc1onc(-c2c(F)cccc2Cl)c1C(=O)CBr ; what melting point value has been reported?
## Result 74 to 75 °C

New cases:
## Task Given the compound OCc1cc2cc(-c3ccsc3)ccc2o1 , what is its reported melting point?
## Result 122 to 124 °C

## Task So what's the measured melting point for this one? CCCc1ccc(OCc2ccc(OCc3nc(-c4ccccc4)oc3C)cc2)cc1OCC(=O)OC
## Result 100 to 101 °C

## Task Item under review: NC(=O)OC[C@@H]1[C@H](NC(=O)/C(=N\OCC(=O)O)c2csc(N)n2)C(=O)N1S(=O)(=O)O . Reported melting point?
## Result 207 °C

## Task Given the compound Cc1ccc2c(=O)c(S(=O)(=O)Cl)cn(C)c2c1 , what is its reported melting point?
## Result > 300 °C

## Task Endpoint output: melting point of Cc1cc(SC(C)C)c(NC(=O)CCCSc2nc3cccc(C(F)(F)F)c3o2)c(SC(C)C)n1 . Value?
## Result 135 to 136 °C

## Task Value lookup for melting point; key = C[Si](C)(C)c1ccc2cc(C(=O)Nc3ccc(N4CC(O)C4)nc3)n(Cc3cccc(F)c3)c2c1
## Result 188 to 189 °C

====

# reported melting point; entries follow

## Task Give its melting point value. Item: Cn1c(SCc2ccccc2)nc2cnc3ccccc3c21
## Result 160 to 163 °C

====

endpoint: melting point

Completed entries (count: 8):
## Task Request the reported melting point associated with O=c1oc2c3c(n(-c4ccccc4)c(=O)c2c(O)c1Sc1ccccc1)-c1ccccc1C3
## Result 274 to 275 °C

## Task Entry CC(C)(C)OC(=O)c1ncn2c1[C@@H]1CCCN1C(=O)c1c(Br)cccc1-2 has what melting point?
## Result 206 to 208 °C

## Task Given the entry CC(C)C1NC(=S)N(c2ccc(N(C)C)c3ccccc23)C1=O (centres undefined) , report its measured melting point.
## Result 108 to 110 °C

## Task What measured melting point goes with CC(C)(C)[Si](C)(C)Oc1ccc2c(c1)CCc1c-2c(=O)oc2cc(O[Si](C)(C)C(C)(C)C)ccc12 ?
## Result 145 to 147 °C

## Task Reported melting point, compound O=C(NCCCCc1ccc(-c2ccc(=O)[nH]n2)cc1)c1cccnc1 : ____
## Result 190 to 191 °C

## Task Query (compound): CCOC(=O)C(C(=O)OCC)C(N)c1ccc([N+](=O)[O-])cc1C(N)C(C(=O)OCC)C(=O)OCC (centres undefined) ; field requested: melting point
## Result 148 to 151 °C

## Task Entry Nc1cc(Oc2ccc(NC(=O)Nc3ccc(Cl)c(C(F)(F)F)c3)cc2)ncn1 has what melting point?
## Result 197 to 198 °C

## Task # lookup: melting point of COC(=O)c1ccc(F)c(Br)c1
## Result 29 to 30 °C

Continuing:
## Task Recorded melting point of Cc1c(Cl)c(C(=O)O)cc([N+](=O)[O-])c1Cl , please.
## Result 152 to 154 °C

====

endpoint: melting point

Sample answers from the record:
## Task I'd like to know its melting point. The compound in question is CN(C)CCCCCCNCc1ccc(-c2cc3ncnc(Nc4ccc5[nH]ccc5c4)c3s2)cc1
## Result 134 to 148 °C

## Task Give the measured melting point of Cn1c(=O)cc(-c2cccc(Cl)c2)c2cc(C(=O)c3ccoc3)ccc21 .
## Result 192 °C

## Task Can you look up the measured melting point of COC(=O)c1ccc(-c2ncccc2S(=O)(=O)Nc2ncc(C)nc2OC)cc1 for me?
## Result 144 to 146 °C

## Task Give its melting point value. Item: COc1cc2c(c(OC)c1OC)-c1ccc(SC)c(=O)cc1C(N)CC2 (stereo not given)
## Result 168 to 170 °C

Switching to the query record.
## Task # get_value(readout='melting point', item= Cc1csc2c1S(=O)(=O)N=C(NC(C)C)N2 )
## Result 152 to 154 °C
